From: PubChem BioAssay AID430

- assayOverview: cytotoxicity in HPDE-C7 cells, cell-based, fluorescence, HTS (AID 430);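 note: cells exposed to compound for 48 hours before viability readout; 0% = vehicle and 100% = reference cytotoxic drug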
- experimentalContext: HPDE-C7 pancreatic duct cells viability, at 10 µM, stronger effect = higher value
In all, about 63,000 compounds went through this assay and about 1,100 (1.7%) were called active. The entries come from a sample that favours actives as a whole. Entries with a potency or affinity are not part of this list.
reportedMetric: cytotoxicity (%)
// return numeric value only (unit: %, not printed)

Annotate the compound CCOC(=O)C1CCN(Cc2c(O)ccc3ccccc23)CC1 with its measured cytotoxicity.
-5.8

Give a short answer stating reported cytotoxicity for COc1cc(OC)cc(-n2c3nc4ccccc4nc3c3c(=O)n(CC4CCCO4)cnc32)c1 (centres undefined) .
-11.1

Supply recorded cytotoxicity for COc1ccc(C(NC(C)=O)c2ccc3cccnc3c2O)c(OC)c1 (centres undefined) here.
11.7

Supply cytotoxicity value. Item: CCOC(=O)c1cc(C)n(CCc2ccccc2)c1C
-7.6

Item CCOCC(=O)Nc1nnc(Cc2ccc(OC)c(OC)c2)s1 : provide cytotoxicity
-11.9

Identify the reported cytotoxicity for the following entry. Cc1cc(-c2ccccc2)nc(N2CCN(c3ccccn3)CC2)n1
11.2

State its cytotoxicity for this compound: COc1ccc(OC)c(NC(=O)c2nnn(Cc3ccc(Br)cc3F)c2N)c1
18.8

Specify measured cytotoxicity for Cc1cc(NC(c2cccnc2)c2ccc3cccnc3c2O)no1 (centres undefined) .
9

Quickly give me recorded cytotoxicity for COCCN(CCOC)C(=O)CCn1c(=O)oc2ccccc21
-0.2

Dear colleague, please send me the reported cytotoxicity for Cc1cc(-c2csc(N)n2)c(C)n1CCc1ccccc1 when you can.
78.3

State its cytotoxicity: O=C(CCCSc1nc(-c2ccco2)cc(C(F)(F)F)n1)NCc1cccs1
-4.3

Please report the measured cytotoxicity for c1ccc(Nc2ncnc3c2oc2ccccc23)cc1
-9.3

Please supply the value of reported cytotoxicity for the item Cc1cccc(OCCc2nnc(N)s2)c1C
-15.8

Output cytotoxicity of COC(=O)C1=C(C)OC(N)=C(C#N)C1c1ccc(OC)c(OC)c1OC (centres undefined)
-14.9

Look up and state reported cytotoxicity for COc1cc(C(=O)Nc2ccccn2)cc(OC)c1OC
5.4

State, in one line, measured cytotoxicity of CC(=O)Nc1nc2ccc(Br)cc2s1
-11.8

Tell me measured cytotoxicity for CCN(CC)C(=O)CSC1=Nc2ccccc2C2=NC(Cc3c[nH]c4ccccc34)C(=O)N12 (centres undefined) please.
-6.1

Assign cytotoxicity to the following record: O=C(O)C1C2CCC(C2)C1C(=O)Nc1nc2ccccc2s1 (centres undefined)
-5.1

Specify measured cytotoxicity for CC(C)NC(=O)c1ccccc1NC(=O)CCS(=O)(=O)Cc1ccccc1 .
-16.4

Dear colleague, please send me the reported cytotoxicity for CCOc1ccc(-c2[nH]ncc2Oc2cccc(OC)c2)c(O)c1 when you can.
55.5

Give recorded cytotoxicity. CCOC(=O)C1CCN(Cc2ccc(O)c3ncccc23)CC1
60.3

Note down cytotoxicity recorded for COc1cc(C2CC(=O)c3cnc(N4CCN(Cc5ccccc5)CC4)nc3C2)cc(OC)c1OC (centres undefined)
46

Annotate the compound CN1CCN(S(=O)(=O)c2ccc3c4c(cccc24)C(=O)N3)CC1 with its measured cytotoxicity.
5.6

Provide one value: measured cytotoxicity of O=C(NCc1ccco1)C1OCCc2ccccc21 (centres undefined)
-15.1

====

- assayOverview: cytotoxicity in HPDE-C7 cells, cell-based, fluorescence, HTS (AID 430);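 note: cells exposed to compound for 48 hours before viability readout; 0% = vehicle and 100% = reference cytotoxic drug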
- experimentalContext: HPDE-C7 pancreatic duct cells viability, at 10 µM
The whole screen tested about 63,000 compounds, of which about 1,100 (1.7%) were called active. Cut-off read from the data, not from the text of the source: active = cytotoxicity above about 50%; inactive = the rest. Many of the other results were omitted from the sample, so actives are more common in it than they were. Results with a measured potency or affinity are listed apart.
Reply using exactly one outcome from 1 (active), -1 (inactive)

Outcome? Cc1ccc(NC(=O)CN(C)S(=O)(=O)c2cccc3cccnc23)cc1
-1

Hi team, can someone confirm the assay call for CCc1cc2c(=O)c(-c3nc4ccccc4[nH]3)coc2cc1OC(=O)N1CCOCC1 ?
-1

State the result this test recorded for C=CCSC1=N/C(=C\C=C\c2ccco2)C(=O)S1 .
-1

Call for entry O=C(NCCC1=CCCCC1)C1CC(=O)N(C2CCCCC2)C1 (configuration not stated) :
-1

I would be grateful if you could indicate the recorded call for CCn1c2c(c3cc(Cl)ccc31)CCCC2=O .
-1

What did the test return for CCN(CC)C(=O)CSC(=Nc1ccccc1F)NC#N ?
-1

Test call for this compound, please: Cc1ccc2c(c1)c1c(n2CC(O)Cn2nc(C)c(Br)c2C)C(=O)CCC1 (configuration not stated)
-1

Which result was noted for this compound in the test: CSc1ccc(S(=O)(=O)Nc2ccc3c(c2)OCCO3)cc1
-1

Dear colleague, could you share the recorded outcome for Clc1ccc2nc(CN3CCCc4ccccc43)cn2c1 when you have a moment?
-1

Test call for this compound, please: Cc1cc(-c2cc(-c3ccc(Cl)cc3)nc(N)c2C#N)co1
1

Give the logged outcome of this assay for the following compound: O=C(NC1=NCCS1)Nc1ccccc1
-1

So what was the verdict on CCn1c(C(C)NC(=O)c2ccc(OC)c(OC)c2)nc2ccccc21 (configuration not stated) in this test?
-1

====

Provide the reported cytotoxicity of each item.
- assayOverview: cytotoxicity in HPDE-C7 cells, cell-based, fluorescence, HTS (AID 430);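 note: cells exposed to compound for 48 hours before viability readout; 0% = vehicle and 100% = reference cytotoxic drug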
- experimentalContext: HPDE-C7 pancreatic duct cells viability, at 10 µM, stronger effect = higher value
About 1,100 (1.7%) of roughly 63,000 compounds were called active. For the sample, actives were picked, then their nearest neighbours and some compounds at random. Entries with a potency or affinity are not part of this list.
Unit % implied. Number only.

Please look at this compound and report its cytotoxicity: Cc1cc2n(n1)C(c1sccc1C)Nc1c(C)cccc1-2 (stereo unspecified)
-3.2

Tell us which cytotoxicity value is on record for O=C(Nc1cccc2nsnc12)c1ccc2c(c1)OCCO2
-5.8

Supply cytotoxicity value. Item: CC(=O)Nc1ccc(S(=O)(=O)N2CCSC2c2ccc(C)cc2)cc1 (stereo unspecified)
0.6

Recall and state the measured cytotoxicity for Oc1ccccc1-c1cc(-c2cccc(F)c2)n[nH]1 .
3.1

Please give the documented cytotoxicity of Cn1c(N2CCN(c3ccccn3)CC2)nc2c1c(=O)n(Cc1ccccc1Cl)c(=O)n2C
-12.8

// fetch cytotoxicity given entry Cn1c(NCc2ccccc2)nc2c1c(=O)n(Cc1ccccc1)c(=O)n2C
5.6

Return cytotoxicity (reported value) for this compound: Cc1ccc(C(=O)Nc2ccccc2N2CCN(C(=O)C(C)C)CC2)cc1C
-15

# return recorded cytotoxicity for input CC(NC(=O)NCC1CCCO1)(C(F)(F)F)C(F)(F)F (stereo unspecified)
-16

Identify the reported cytotoxicity for the following entry. CN1CCN(C(CNS(=O)(=O)c2ccc(Cl)cc2)c2cccnc2)CC1 (stereo unspecified)
2.1

Report cytotoxicity, nothing else, for this compound: O=C(NCc1ccccn1)c1ccc(COc2ccc(Cl)cc2)o1
4.2

Give cytotoxicity for the following compound: CCN(CC)C(C(=O)Nc1ccc2c(c1)OCO2)c1ccccc1 (stereo unspecified)
5

====

- assayOverview: cytotoxicity in HPDE-C7 cells, cell-based, fluorescence, HTS (AID 430);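 note: cells exposed to compound for 48 hours before viability readout; 0% = vehicle and 100% = reference cytotoxic drug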
- experimentalContext: HPDE-C7 pancreatic duct cells viability, at 10 µM, stronger effect = higher value
In all, about 63,000 compounds went through this assay and about 1,100 (1.7%) were called active. The sample holds actives, similar compounds and a random draw of the others, so the mix is not that of the screen. Measured potencies and affinities stand elsewhere.
reportedMetric: cytotoxicity

Note cytotoxicity for the compound shown: CCOC(=O)Cc1csc(NC(=O)CCS(=O)(=O)Cc2ccccc2)n1
0% (inactive)

Please give measured cytotoxicity of the following entry: CCOC(=O)CNC(=O)CSc1nc2cccnc2n1C
-7.9% (inactive)

Give me measured cytotoxicity, please, for this compound: COc1ccccc1N1CCN(Cc2ccco2)CC1
-25.7% (inactive)

Give recorded cytotoxicity. O=C(Nc1ccccc1N1CCCC1)c1ccc(Br)o1
1.2% (inactive)

Using the record for CCN(C(=O)CCS(=O)(=O)c1ccc(Br)cc1)c1ccc2c(c1)OCO2 , state its measured cytotoxicity.
8.6% (inactive)

Provide one value: measured cytotoxicity of Cc1ccc(-n2c(=O)cc(N3CC(C)CC(C)C3)[nH]c2=O)cc1 (centres undefined)
-15.2% (inactive)

Specify reported cytotoxicity for the compound shown: OC1(c2cccc(C(F)(F)F)c2)CCN(c2ncnc3c2[nH]c2ccccc23)CC1
123% (active)

Recall and state the measured cytotoxicity for O=S(=O)(N1CCCCC1)N1CCN(S(=O)(=O)N2CCCCC2)CC1 .
0.2% (inactive)

Retrieve cytotoxicity measured for CCN(CC)C(=O)CSc1nnc(-c2cnccn2)n1-c1ccccc1 and print it.
-10.7% (inactive)

Identify cytotoxicity associated with the compound COc1ccc(N2CCN(C(=O)c3cn(C)c(=O)c4c3c3ccccc3n4C)CC2)cc1
10.1% (inactive)

Fill in cytotoxicity for record Cc1nc(N2CCC(C(N)=O)CC2)c2nnn(Cc3ccccc3)c2n1
4.3% (inactive)

Supply reported cytotoxicity belonging to this compound: O=C(Oc1cccc(Oc2ccccc2)c1)N1CCOCC1
-6.3% (inactive)

Given the compound CC(C)(C)NC(=O)CSc1nnc(C2CC2)n1Cc1ccccc1 , write its reported cytotoxicity.
-7.8% (inactive)

Hello, please tell me recorded cytotoxicity for this one: CN1CCN(CC(=O)N(Cc2c(C#N)c3ccccc3n2C)c2ccccc2)CC1
2.3% (inactive)

State, in one line, measured cytotoxicity of Cc1ccc(/C(O)=C2\C(=O)C(=O)N(c3cc(C)on3)C2c2cccc(Cl)c2)cc1 (centres undefined)
51.8% (active)

Look up cytotoxicity of COc1cccc(C2/C(=C(\O)c3ccc(OC)c(OC)c3)C(=O)C(=O)N2c2cc(C)on2)c1 (centres undefined) and report it.
20.9% (inactive)

Entry O=C(C1=C(O)C(=O)N(c2ncccn2)C1c1ccc(Cl)c(Cl)c1)c1ccco1 (centres undefined) needs its cytotoxicity filled in; supply it.
7.8% (inactive)

Respond only with cytotoxicity recorded for O=S(=O)(c1cc(C(F)(F)F)ccc1Cl)N1CCCCCC1
-4% (inactive)

Input Cc1ccc(SCc2cn3c(C)csc3n2)cc1 , output reported cytotoxicity.
-10.2% (inactive)

Quick one: give measured cytotoxicity for CCCOc1ccc(C(=O)NCc2cccnc2)cc1
-13.2% (inactive)

Fill in cytotoxicity for record COc1cccc(NC(=O)C2CCCN2C(=O)Nc2cccc(F)c2)c1 (centres undefined)
9.8% (inactive)

Annotate the compound c1ccc(CCN2CN(CCCN3CCOCC3)c3nc4ccccc4n3C2)cc1 with its measured cytotoxicity.
-23.9% (inactive)

Identify cytotoxicity associated with the compound c1ccc2c(c1)[nH]c1c(N3CCC4(CC3)OCCO4)ncnc12
-10.6% (inactive)

Check the records and state cytotoxicity for CC1CN(c2nc3ccccc3nc2C(C#N)C(=O)OC2CCCCC2)CC(C)O1 (centres undefined)
-26.1% (inactive)

Using the record for Cc1cc(N2C(=O)C(=O)/C(=C(/O)c3ccc(F)cc3)C2c2ccc(Cl)cc2)no1 (centres undefined) , state its measured cytotoxicity.
34.6% (inactive)

Assign cytotoxicity to the following record: Nc1ccccc1-c1nnc(SCc2ccccc2F)[nH]c1=O
3.6% (inactive)

Given the compound Cc1nn(-c2ccccc2)c2c1C(c1ccco1)C(C#N)=C(N)O2 (centres undefined) , write its reported cytotoxicity.
11.5% (inactive)

Please list cytotoxicity recorded for the compound O=C(Nc1cccc(Cl)c1N1CCCC1)c1ccc(Br)o1
75% (active)

For the compound CCN(C(=O)c1coc(=O)c(Br)c1)c1ccc2c(c1)OCO2 , give its measured cytotoxicity value.
74.4% (active)

Read the entry CCN1CCN(c2c(Cl)cccc2NC(=O)c2ccc(Br)o2)CC1 and write its reported cytotoxicity.
1.5% (inactive)

Consider the compound CCN=C1SC(C(=O)NCCc2ccccc2)CC(=O)N1CC (centres undefined) and give its recorded cytotoxicity.
5.8% (inactive)

Answer with the recorded cytotoxicity of Cc1nc(SCc2cccc(F)c2)[nH]c(=O)c1C#N only.
-9.7% (inactive)

Provide one value: measured cytotoxicity of Cc1cc(N2C(=O)C(=O)/C(=C(/O)c3ccc(Cl)cc3)C2c2cccc(Br)c2)no1 (centres undefined)
56.2% (active)

Quick one: give measured cytotoxicity for c1ccc(-c2noc(CN3CCN(c4ccccc4)CC3)n2)cc1
-1.5% (inactive)

Give a short answer stating reported cytotoxicity for CN1C(=O)C2(c3ccccc31)N(C)CC(c1ccccn1)C21SC(=S)N(Cc2ccco2)C1=O (centres undefined) .
-9.5% (inactive)

For the compound COc1ccc(/C(O)=C2\C(=O)C(=O)N(c3cc(C)on3)C2c2ccccc2OC)cc1 (centres undefined) , give its measured cytotoxicity value.
-1.9% (inactive)

Identify measured cytotoxicity corresponding to COc1ccc(C(=O)N2CCN(S(=O)(=O)c3ccc(C)cc3C)CC2)cc1OC
2.4% (inactive)

Return the recorded cytotoxicity value; entry: COc1ccc(OC)c(S(=O)(=O)N(C)CC(=O)Nc2ccc3c(c2)OCCO3)c1
-1.4% (inactive)

Give reported cytotoxicity value for COc1ccc(CNC(=O)C2CCCN2S(=O)(=O)c2ccc(C)cc2)cc1 (centres undefined)
9.7% (inactive)

Specify reported cytotoxicity for the compound shown: N#Cc1c(-c2ccco2)nc(SCC(=O)Nc2cccc(Cl)c2)[nH]c1=O
19% (inactive)

Let me know recorded cytotoxicity for COc1ccc(N2CCN(C(=O)CCN3C(=O)c4ccccc4S3(=O)=O)CC2)cc1 , thanks.
-0.5% (inactive)

Identify cytotoxicity associated with the compound Cn1cc(C(=O)NCCN2CCN(c3cccc(Cl)c3)CC2)c2c3ccccc3n(C)c2c1=O
-12.1% (inactive)

Write down cytotoxicity measured for item CCOC(=O)N1CCN(C(=O)c2cn(C)c(=O)c3c2c2ccccc2n3C)CC1
-11.5% (inactive)

Note down cytotoxicity recorded for CN(C)C(=O)COn1c(SCC(=O)N(C)C)nc2ccccc2c1=O
-6.6% (inactive)
